Molecular target: γ-secretase (Homo sapiens)
Construct: endogenous in cells; host or cells: SKNBE2 human neuroblastoma cells (carrying hAPP 695 wild type as substrate)
Assay: Screening for γ-secretase-modulating activity: Aβ42 in supernatant of SKNBE2 cells carrying hAPP 695 wild type (Alphalisa)
Type: cell-based
Conditions: SKNBE2 human neuroblastoma cells carrying hAPP 695 wild type, overnight incubation, Aβ42 in cell supernatant
READOUT TYPE: IC50 (µM)

Example cases with answers are listed next.
{"columns": ["COMPOUND", "OBSERVED"],
 "data": [
  ["Cc1cn(-c2ccc3n(c2=O)CCN(C(c2ccccc2)c2cc(C(F)(F)F)cc(C(F)(F)F)c2)C3=O)cn1 (racemic)", 0.98],
  ["COC[C@@H]1Cn2c(ccc(-n3cnc(C)c3)c2=O)C(=O)N1Cc1cc(C(F)(F)F)cc(C(F)(F)F)c1", 0.26],
  ["Cc1cn(-c2cc(Cl)c3n(c2=O)CCN(Cc2cccc(-c4ccccc4)c2)C3=O)cn1", 1.86],
  ["Cc1ncn(-c2ccc3n(c2=O)CCN(Cc2cccc(C(F)(F)F)c2)C3=O)n1", 6.17],
  ["CCc1cn(-c2ccc3n(c2=O)CC(CN(C)C)N(Cc2cc(C(F)(F)F)cc(C(F)(F)F)c2)C3=O)cn1 (centres unmarked)", 0.93]
]}

A. Cc1cn(-c2ccc3n(c2=O)C[C@@H](C)N(C(C)c2cc(C(F)(F)F)cc(C(F)(F)F)c2)C3=O)cn1 (mixture of isomers)
B. Cc1cn(-c2ccc3n(c2=O)C[C@@H](C)N(CC2(c4ccc(Cl)cc4)CC2)C3=O)cn1
C. Cc1cn(-c2ccc3n(c2=O)C[C@@H](C)N(Cc2ccc(Cl)c(C(F)(F)F)c2)C3=O)cn1
D. CNC[C@@H]1Cn2c(ccc(-n3cnc(C)c3)c2=O)C(=O)N1Cc1cc(C(F)(F)F)cc(C(F)(F)F)c1
E. Cc1cn(-c2ccc3n(c2=O)C[C@@H](C)N(Cc2cc(N4CCCCC4)cc(C(F)(F)F)c2)C3=O)cn1
Task for the reader: rank each entry by its IC50, from the minimum upward. Returns: the labels listed in the requested order.
E, A, C, B, D
